CMV-LACZ in Myotubes, signal relative to DMSO values by entry
System: β-galactosidase in CMV-LacZ C2C12 myotubes
Experimental Details: CMV-LacZ secondary screen in C2C12 myotubes (β-Gal stabilizing assay)
Assay type: cell-based, mouse
Particulars: 1 uM; C2C12 CMV-LacZ myotubes; fold relative to DMSO
Would you mind answering with just the numeric figure?

O=c1[nH]c(CN2CCCCC2)nc2c1C1(CCCCC1)Cc1ccccc1-2 : 1.0362
CCCCN1CC(=O)N2Cc3[nH]c4ccccc4c3C[C@H]2C1=O : 1.1248
CC(C)Oc1cccc(C(=O)Nc2ccc(CN3CCOCC3)cc2)c1 : 0.9743
Cc1ccsc1-c1n[nH]c(=S)n1C1CCCCC1 : 1.0842
Cc1ccc2c(c1)/C(=C/c1ccco1)C(=O)N2 : 0.9638
CCOc1ccccc1Nc1cc2n(c(=O)n1)CCc1cc(OC)c(OC)cc1-2 : 1.0800
COC(=O)c1cc(S(=O)(=O)NCC2CCN(Cc3ccc(Cl)cc3)CC2)cn1C : 1.0867
CN1C(=O)N(CC(=O)N2CCN(S(=O)(=O)c3ccc(Cl)s3)CC2)C(=O)C12CCCCC2 : 1.0191

Moving on to another compound below.
The measured CMV-LACZ in Myotubes, signal relative to DMSO associated with `Cc1cc(OCC(=O)NC(C)C)ccc1Cl` reads 0.9810

---

Tested on: α7 integrin (LacZ reporter in α7+/LacZ myotubes)
Experimental Details: Myotube α7 integrin FDG assay (Burkin assay in myotubes, 96-well)
Format: cell-based, mouse
Particulars: myotubes, 40 uM
Parameter Measured: Burkin Assay in Myotubes, α7 integrin LacZ reporter signal relative to DMSO
Would you mind answering with just the numeric figure?

Example entries begin here.
CC(C(=O)Nc1ccc(C#N)cc1)N(C)CC(=O)Nc1cccc(F)c1 (centres unmarked) [MLS001033255-01] : 1.232
Cc1ccc(N2C(=O)C3NN=C(C(=O)OCc4ccccc4)C3C2=O)cc1 (centres unmarked) [MLS000588210-01] : 0.9565
Cc1nnc(SCC(=O)c2ccc(Br)cc2)s1 [MLS000420298-01] : 1.006
CC(=O)Nc1nonc1-c1nc2ccccc2n1CCC(C)C [MLS000085522-01] : 0.556

The measured Burkin Assay in Myotubes, α7 integrin LacZ reporter signal relative to DMSO associated with O=C(NCCc1ccc(Cl)cc1)C1CCCO1 (centres unmarked) [MLS001198271-01] reads 0.8217

---

Tested on: β-galactosidase in CMV-LacZ C2C12 myoblasts
Experimental Details: CMV-LacZ secondary screen in C2C12 myoblasts (β-Gal stabilizing assay)
Format: cell-based, mouse
Particulars: 20 uM; SU9516 analogs, C2C12 CMV-LacZ, N=2
CMV-LACZ in Myoblasts, value relative to DMSO values by entry
Would you mind answering with just the numeric figure?

Example entries begin here.
COc1cc(OC)c(/C=C2/C(=O)Nc3ccccc32)c(OC)c1 : 0.8083
O=C(O)COc1ccccc1/C=C1\C(=O)Nc2ccc(Br)cc21 : 0.7144
COc1ccc2c(c1)/C(=C\c1cccc(/C=C3/C(=O)Nc4ccc(OC)cc43)n1)C(=O)N2 : 0.2593

The measured CMV-LACZ in Myoblasts, value relative to DMSO associated with CCN(CC)CCNC(=O)c1c(C)[nH]c(/C=C2\C(=O)Nc3ccc(F)cc32)c1C [NCGC00164631-03] reads 0.1830

The measured CMV-LACZ in Myoblasts, value relative to DMSO associated with `CCc1nc(/C=C2\C(=O)Nc3ccccc32)c[nH]1` reads 0.9007
